Target: Nuclear receptor subfamily 1 group I member 3 (Homo sapiens)
Experiment: qHTS assay to identify small molecule agonists of the constitutive androstane receptor (CAR) signaling pathway (AID 1224839); also: nearly all actives have a fitted effect of over 15% in size;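 as to activation: HepG2 cells stably carrying human CAR and a CYP2B6 luciferase reporter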
Conditions: HepG2 hCAR CYP2B6-luciferase, agonist mode, 24 h; series mostly up to 92.4 µM
From the text: National Center for Advancing Translational Sciences [NCATS] NIH Chemical Genomics Center [NCGC] U.S. Environmental Protection Agency [EPA] National Institutes of Environmental Health Sciences [NIEHS] National Toxicology Program [NTP] […] Assay Protocol Summary: A double-stable (hCAR and CYP2B6-2.2kb) transfected cell line, derived from human hepatoma (HepG2) cells, was utilized for the duration of the quantitative high-throughput screens. […]
Results filed as inconclusive are left out. The source made the active and inactive calls. Calls follow the shape of the dose curve; as a rule, active = well fitted activation curve with a large enough effect in the repeat runs; inconclusive = weak or mixed curves; inactive = no such curve, though single readings can be large or run the other way.
Outcome (select one): TRUE for active, FALSE for inactive

## Input For O=S(=O)(O)c1ccc(N=Nc2c(O)ccc3ccccc23)cc1 , what call appears in the results of this test?
## Output FALSE

## Input Returns: the outcome recorded for Cc1cc(-n2nc3ccc(Cl)cc3n2)c(O)c(C(C)(C)C)c1 in this assay.
## Output FALSE

## Input Hi team, can someone confirm the assay call for C/C=C/C=C/COC(=O)C(C)C ?
## Output FALSE

## Input Write down the call the test reported for this compound. Item: CC(C)(C)NSc1nc2ccccc2s1
## Output FALSE

## Input State the result this test recorded for CCC(C)n1ncn(-c2ccc(N3CCN(c4ccc(OC[C@H]5CO[C@](Cn6cncn6)(c6ccc(Cl)cc6Cl)O5)cc4)CC3)cc2)c1=O (stereo not given in full) .
## Output FALSE

## Input # fetch the recorded call for CCCC(=O)OCCc1ccccc1 here
## Output FALSE

## Input Hi, do you know how CCCCCCCCCCCC(=O)OCC(C)OC(=O)CCCCC(=O)O (stereo not given) came out in this test?
## Output FALSE

## Input In this assay, the call recorded for CN1CCN(Cc2cc(-c3ccc4[nH]c(=O)oc4c3)co2)[C@@H](c2ccc(F)cc2)C1 was what?
## Output FALSE

## Input What classification did CN(C)c1ccc(C(=C2C=CC(=[N+](C)C)C=C2)c2ccc(N(C)C)cc2)cc1 end up with in this test?
## Output FALSE

## Input Please share the test call associated with Nc1ccc(C(=O)O)c(O)c1 .
## Output FALSE

## Input Which outcome was entered for the compound CCN(CC)c1ccc2c(-c3ccc(S(=O)(=O)O)cc3S(=O)(=O)[O-])c3ccc(=[N+](CC)CC)cc-3oc2c1 in this test?
## Output FALSE

## Input Field: outcome | Entry: Oc1cc(Cl)cc(Cl)c1Cl
## Output FALSE

## Input # lookup: test call for O=C1NC(=O)[C@@H]2CC=CC[C@H]12
## Output FALSE

## Input What outcome does the record of this test show for O=C1c2ccccc2C(=O)N1SC1CCCCC1 ?
## Output FALSE

## Input What call does the record list for Cc1c(C)c([N+](=O)[O-])c(C(C)(C)C)c([N+](=O)[O-])c1C ?
## Output TRUE

## Input Give the logged outcome of this assay for the following compound: O=c1c(O)c(-c2ccc(O)cc2O)oc2cc(O)cc(O)c12
## Output FALSE

## Input Look up the recorded call for CCCCCCC1CCCC(=O)O1 (stereo not given) in this test.
## Output FALSE

## Input Test call, this compound: CC1(C)CC(O)CC(C)(C)N1
## Output FALSE

## Input Which outcome did this test record for the compound CCCc1ccc(OCC(=O)N2CCN(C(=O)COc3ccc(CCC)cc3OC)CC2)c(OC)c1 ?
## Output FALSE

## Input In this assay, the call recorded for CCC(CC)C(C)CCOC(C)=O (stereo not given) was what?
## Output FALSE

## Input Given CCCCCC(C)OC(=O)COc1ccc(Cl)c2cccnc12 (stereo not given) , state the outcome it received in this test.
## Output FALSE

## Input Dear all, I need the recorded test outcome for CCCCCCCCCCCCOCCOCCOCCOCCOCCOCCOCCOCCOCCO , thank you.
## Output FALSE

## Input Could you please tell me the result logged for C#Cc1ccc(-c2ccccc2F)cc1 in this assay?
## Output FALSE

## Input // return assay outcome for Nc1nc(N)nc(-c2cc(Cl)ccc2Cl)n1
## Output FALSE

## Input Field: outcome | Entry: CCCCOC(=O)CO
## Output FALSE

## Input // outcome(item) with item = O=[N+]([O-])c1ccc(O)cc1C(F)(F)F
## Output FALSE

## Input Which outcome was entered for the compound O=C1CCc2ccc(OCCCCN3CCN(c4cccc(Cl)c4Cl)CC3)cc2N1 in this test?
## Output FALSE

## Input I'd appreciate the recorded outcome for O=[N+]([O-])c1ccc(F)c(Cl)c1 from this test.
## Output FALSE

## Input Answer briefly: the call reported for CNC(=O)c1ccccc1Sc1ccc2c(/C=C/c3ccccn3)n[nH]c2c1 in this assay.
## Output TRUE

## Input Please share the test call associated with CCCCCCCCCCCCCC[N+](C)(C)Cc1ccccc1 .
## Output FALSE

## Input Per the assay record, what outcome was assigned to CN(C)Cc1ccccc1O ?
## Output FALSE

## Input What call does the record list for O=C(O)c1cccc(C(F)(F)F)c1 ?
## Output FALSE

## Input State the result this test recorded for CC[N+](CC)(CC)CCOc1ccc(/C=C/c2ccccc2)cc1 .
## Output FALSE

## Input Lab log entry: CCCCCCCCCCCCCC[N+](C)(C)C — outcome as called in the assay?
## Output FALSE

## Input # outcome recorded in this test, key = CCc1cccc(CC)c1NC(=O)CN(CC(=O)O)CC(=O)O
## Output FALSE

## Input Please share the test call associated with COc1ccc2c(c1)c(CC(=O)OC/C=C(\C)CC/C=C(\C)CCC=C(C)C)c(C)n2C(=O)c1ccc(Cl)cc1 .
## Output FALSE

## Input How was CCC(CC)(CC(=O)Nc1cccc(/C=C/c2nc(C3CCC3)cs2)c1)C(=O)O classified in this test?
## Output TRUE

## Input Query: recorded result category for OC/C=C/CO in this test
## Output FALSE

## Input Could you please tell me the result logged for O=C(/C=C/c1ccc(O)c(O)c1)O[C@@H](C(=O)O)[C@@H](OC(=O)/C=C/c1ccc(O)c(O)c1)C(=O)O in this assay?
## Output FALSE

## Input I'd appreciate the recorded outcome for CC1(C)[C@@H](O)CC[C@]2(C)[C@H]3C(=O)C=C4[C@@H]5C[C@@](C)(C(=O)O)CC[C@]5(C)CC[C@@]4(C)[C@]3(C)CC[C@@H]12 from this test.
## Output FALSE

## Input So what was the verdict on O=C(c1ccc(O)c(O)c1)c1ccc(O)cc1O in this test?
## Output FALSE

## Input Which outcome was entered for the compound COC1=C(OC)C(=O)C(CCCCCCCCCCO)=C(C)C1=O in this test?
## Output FALSE

## Input Please indicate how the test categorized CCCNCCC .
## Output FALSE

## Input Per the records of this test, what outcome belongs to CCC(COC(=O)CCS)(COC(=O)CCS)COC(=O)CCS ?
## Output FALSE

## Input Test call for this compound, please: CC(C(=O)O)c1ccc2c(c1)[nH]c1ccc(Cl)cc12 (stereo not given)
## Output FALSE

====

Assay: qHTS assay to identify small molecule antagonists of the thyroid receptor (TR) signaling pathway (AID 743065); also: nearly all actives have a fitted effect of over 55% in size
Settings: GH3.TRE-Luc, T3-stimulated luciferase inhibition, 23.5 h; series mostly up to 70.3 µM
Records with an inconclusive call do not appear. Calls of active or inactive are those of the source. Calls follow the shape of the dose curve; as a rule, active = well fitted inhibition curve with a large enough effect in the repeat runs; inconclusive = weak or mixed curves; inactive = no such curve, though single readings can be large or run the other way.
Just give me one of these, please: active, inactive

## Input Would you mind telling me which call this test gave Cc1cc(-n2nc3ccc(Cl)cc3n2)c(O)c(C(C)(C)C)c1 ?
## Output inactive

## Input Per the assay record, what outcome was assigned to CCOC(=O)c1ccc(C2CCC(NC[C@H](O)COc3ccc(O)c(NS(C)(=O)=O)c3)CC2)cc1 (some centres not stated) ?
## Output active

## Input Which outcome was assigned to Cc1c(C)c2c(c(C)c1OC(=O)c1cccnc1)CC[C@@](C)(CCC[C@H](C)CCC[C@H](C)CCCC(C)C)O2 in this test?
## Output inactive

## Input Just curious, what result did CCCCOC(=O)CO get here?
## Output inactive

## Input Which outcome was entered for the molecule O=C1NC(=O)[C@@H]2CC=CC[C@H]12 in this test?
## Output inactive

## Input Given O=[N+]([O-])c1ccc(F)c(Cl)c1 , state the outcome it received in this test.
## Output inactive

## Input Each molecule tested received a call. Report the one for COc1cc(/C=C/c2ccccc2)oc(=O)c1 .
## Output inactive

## Input State the result this test recorded for Cc1ccc(O)c(O)c1 .
## Output active

## Input What did the test return for COC(=O)c1ccccc1C ?
## Output inactive

## Input Entry Cc1cc(=O)oc2cc(O)cc(O)c12 : call = ?
## Output inactive

## Input I would be grateful if you could indicate the recorded call for C#C[C@]1(O)CC[C@H]2[C@@H]3[C@H](C)CC4=C(CCC(=O)C4)[C@H]3CC[C@@]21C .
## Output active

## Input What classification did COC(=O)c1ccccc1OC end up with in this test?
## Output inactive

This collection of values is drawn from PubChem BioAssay (Tox21).
